# targetSystem: ERK2 (Homo sapiens (Human))
# Sequence (P28482 whole entry, species assumed): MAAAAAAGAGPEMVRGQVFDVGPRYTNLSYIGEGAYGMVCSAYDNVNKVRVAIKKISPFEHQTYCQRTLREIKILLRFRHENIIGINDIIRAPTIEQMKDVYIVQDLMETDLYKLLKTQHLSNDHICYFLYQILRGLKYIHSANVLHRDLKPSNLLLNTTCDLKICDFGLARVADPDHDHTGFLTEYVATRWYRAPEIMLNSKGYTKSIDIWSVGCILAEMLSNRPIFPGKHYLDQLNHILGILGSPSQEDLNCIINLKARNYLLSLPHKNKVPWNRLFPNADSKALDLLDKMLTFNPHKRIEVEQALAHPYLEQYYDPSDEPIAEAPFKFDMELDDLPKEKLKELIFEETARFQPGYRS
# measurementDescription: ERK2 kinase selectivity assay
# Assay type: biochemical
# runParameters: 1 μM inhibitor concentration
The entries below are paired with their reported percentage inhibition of ERK2.

compound: CN1CCC(N2Cc3ccccc3-c3n[nH]c4ccnc2c34)CC1 [Example 55]
percentage inhibition of ERK2: 0 percentage

compound: c1cc2[nH]nc3c2c(n1)N(C1CCCC1)CCC3 [Example 23]
percentage inhibition of ERK2: 0 percentage

compound: CC(C)n1ncc2c1CN(C1CCN(C)CC1)c1nccc3[nH]nc-2c13 [Example 68]
percentage inhibition of ERK2: 11 percentage

compound: c1cc2[nH]nc3c2c(n1)N(C1CCOCC1)CCC3 [Example 29]
percentage inhibition of ERK2: 0 percentage

compound: c1cc2[nH]nc3c2c(n1)N(C1CCC1)CCC3 [Example 22]
percentage inhibition of ERK2: 0 percentage

====

# targetSystem: IRR (Homo sapiens (Human))
# measurementDescription: IRR kinase selectivity assay
# Format: biochemical
# runParameters: 1 μM inhibitor concentration
# Protocol: 5-20 mU of IRR (diluted in 50 mM Hepes (pH 7.5), 0.1 mM EGTA) is assayed against MBP in a final volume of 25.5 μl containing 50 mM Hepes (pH 7.5), 0.1 mM EGTA, 0.33 mg/ml MBP, 10 mM magnesium acetate and 0.005 mM [33P-g-ATP](500-1000 cpm/pmole) and incubated for 30 mins at room temperature. Assays are stopped by addition of 5 μl of 0.5M (3%) orthophosphoric acid. Assays are harvested onto P81 Unifilter plates using a wash buffer of 50 mM orthophosphoric acid.
measuredEndpoint: percentage inhibition of IRR (percentage)

compoundString: c1cc2[nH]nc3c2c(n1)N(C1CCOCC1)CCC3
targetSystem: IRR (Homo sapiens (Human))
experimentalValue: 6

compoundString: c1cc2[nH]nc3c2c(n1)N(C1CCCC1)CCC3
targetSystem: IRR (Homo sapiens (Human))
experimentalValue: 4

compoundString: c1cc2[nH]nc3c2c(n1)N(C1CCC1)CCC3
targetSystem: IRR (Homo sapiens (Human))
experimentalValue: 8

compoundString: CC(C)n1ncc2c1CN(C1CCN(C)CC1)c1nccc3[nH]nc-2c13
targetSystem: IRR (Homo sapiens (Human))
experimentalValue: 1

compoundString: CN1CCC(N2Cc3ccccc3-c3n[nH]c4ccnc2c34)CC1
targetSystem: IRR (Homo sapiens (Human))
experimentalValue: 18

====

# targetSystem: DYRK1A (Homo sapiens (Human))
# measurementDescription: DYRK1A kinase selectivity assay
# Format: biochemical
# runParameters: 1 μM inhibitor concentration

compound: c1cc2[nH]nc3c2c(n1)N(C1CCC1)CCC3 [Example 22]
unitsText: percentage
percentage inhibition of DYRK1A: 16
//
compound: CN1CCC(N2Cc3ccccc3-c3n[nH]c4ccnc2c34)CC1 [Example 55]
unitsText: percentage
percentage inhibition of DYRK1A: 8
//
compound: c1cc2[nH]nc3c2c(n1)N(C1CCOCC1)CCC3 [Example 29]
unitsText: percentage
percentage inhibition of DYRK1A: 4
//
compound: c1cc2[nH]nc3c2c(n1)N(C1CCCC1)CCC3 [Example 23]
unitsText: percentage
percentage inhibition of DYRK1A: 0
//
compound: CC(C)n1ncc2c1CN(C1CCN(C)CC1)c1nccc3[nH]nc-2c13 [Example 68]
unitsText: percentage
percentage inhibition of DYRK1A: 0

====

Here, each record is paired with measured percentage inhibition of CK2 data.
# Tested on: CK2
# measurementDescription: CK2 kinase selectivity assay
# Assay type: biochemical
# runParameters: 1 μM inhibitor concentration

compoundString: c1cc2[nH]nc3c2c(n1)N(C1CCOCC1)CCC3
percentage inhibition of CK2 [percentage]: 0
//
compoundString: CC(C)n1ncc2c1CN(C1CCN(C)CC1)c1nccc3[nH]nc-2c13
percentage inhibition of CK2 [percentage]: 4
//
compoundString: CN1CCC(N2Cc3ccccc3-c3n[nH]c4ccnc2c34)CC1
percentage inhibition of CK2 [percentage]: 11
//
compoundString: c1cc2[nH]nc3c2c(n1)N(C1CCC1)CCC3
percentage inhibition of CK2 [percentage]: 0

====

# targetSystem: IGF-1R (Homo sapiens (Human), UniProt P08069)
# Sequence (P08069 31-1367, species assumed): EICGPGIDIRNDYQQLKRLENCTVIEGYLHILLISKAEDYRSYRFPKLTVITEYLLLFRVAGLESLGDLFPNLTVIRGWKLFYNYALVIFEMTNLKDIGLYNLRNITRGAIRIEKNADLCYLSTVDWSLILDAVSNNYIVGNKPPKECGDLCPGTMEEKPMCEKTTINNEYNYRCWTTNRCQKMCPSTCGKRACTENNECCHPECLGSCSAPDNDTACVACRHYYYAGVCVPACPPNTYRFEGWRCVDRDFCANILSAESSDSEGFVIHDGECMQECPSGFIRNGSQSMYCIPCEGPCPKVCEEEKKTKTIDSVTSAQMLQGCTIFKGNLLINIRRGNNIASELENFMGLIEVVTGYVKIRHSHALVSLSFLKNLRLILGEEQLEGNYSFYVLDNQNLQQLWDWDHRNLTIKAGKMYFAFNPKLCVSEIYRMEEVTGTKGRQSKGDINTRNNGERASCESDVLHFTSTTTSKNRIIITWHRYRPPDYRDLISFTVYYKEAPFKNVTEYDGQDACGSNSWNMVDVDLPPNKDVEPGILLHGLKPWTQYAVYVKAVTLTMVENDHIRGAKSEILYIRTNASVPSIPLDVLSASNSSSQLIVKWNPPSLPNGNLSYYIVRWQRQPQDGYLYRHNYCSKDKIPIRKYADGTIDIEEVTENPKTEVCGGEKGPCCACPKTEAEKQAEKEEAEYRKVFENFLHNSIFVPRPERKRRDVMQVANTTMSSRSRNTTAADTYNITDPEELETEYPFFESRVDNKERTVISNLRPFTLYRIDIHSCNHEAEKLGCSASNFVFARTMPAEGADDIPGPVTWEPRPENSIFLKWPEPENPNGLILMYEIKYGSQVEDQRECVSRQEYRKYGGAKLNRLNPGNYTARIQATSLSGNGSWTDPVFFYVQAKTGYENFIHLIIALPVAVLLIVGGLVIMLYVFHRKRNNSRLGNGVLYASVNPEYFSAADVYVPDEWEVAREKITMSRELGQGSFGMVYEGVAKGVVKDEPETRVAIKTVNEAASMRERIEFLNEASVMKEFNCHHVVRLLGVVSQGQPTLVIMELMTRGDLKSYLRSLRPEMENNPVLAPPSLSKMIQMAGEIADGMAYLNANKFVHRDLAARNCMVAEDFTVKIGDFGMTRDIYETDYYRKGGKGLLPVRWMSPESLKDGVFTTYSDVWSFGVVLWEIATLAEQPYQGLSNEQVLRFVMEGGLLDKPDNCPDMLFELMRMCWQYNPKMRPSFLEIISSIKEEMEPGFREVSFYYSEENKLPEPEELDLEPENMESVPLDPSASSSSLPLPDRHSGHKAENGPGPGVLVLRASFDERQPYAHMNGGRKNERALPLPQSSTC
# measurementDescription: IGF-1R kinase selectivity assay
# Format: biochemical
# runParameters: 1 μM inhibitor concentration
Listed compounds paired with reported percentage inhibition of IGF-1R
measuredEndpoint: percentage inhibition of IGF-1R

compoundString: CC(C)n1ncc2c1CN(C1CCN(C)CC1)c1nccc3[nH]nc-2c13
experimentalValue: 0 percentage
--
compoundString: c1cc2[nH]nc3c2c(n1)N(C1CCCC1)CCC3
experimentalValue: 2 percentage
--
compoundString: c1cc2[nH]nc3c2c(n1)N(C1CCC1)CCC3
experimentalValue: 9 percentage
--
compoundString: c1cc2[nH]nc3c2c(n1)N(C1CCOCC1)CCC3
experimentalValue: 9 percentage
--
compoundString: CN1CCC(N2Cc3ccccc3-c3n[nH]c4ccnc2c34)CC1
experimentalValue: 8 percentage

====

# targetSystem: FGF-R1 (Homo sapiens (Human), UniProt P11362)
# Sequence (P11362 22-822, species assumed): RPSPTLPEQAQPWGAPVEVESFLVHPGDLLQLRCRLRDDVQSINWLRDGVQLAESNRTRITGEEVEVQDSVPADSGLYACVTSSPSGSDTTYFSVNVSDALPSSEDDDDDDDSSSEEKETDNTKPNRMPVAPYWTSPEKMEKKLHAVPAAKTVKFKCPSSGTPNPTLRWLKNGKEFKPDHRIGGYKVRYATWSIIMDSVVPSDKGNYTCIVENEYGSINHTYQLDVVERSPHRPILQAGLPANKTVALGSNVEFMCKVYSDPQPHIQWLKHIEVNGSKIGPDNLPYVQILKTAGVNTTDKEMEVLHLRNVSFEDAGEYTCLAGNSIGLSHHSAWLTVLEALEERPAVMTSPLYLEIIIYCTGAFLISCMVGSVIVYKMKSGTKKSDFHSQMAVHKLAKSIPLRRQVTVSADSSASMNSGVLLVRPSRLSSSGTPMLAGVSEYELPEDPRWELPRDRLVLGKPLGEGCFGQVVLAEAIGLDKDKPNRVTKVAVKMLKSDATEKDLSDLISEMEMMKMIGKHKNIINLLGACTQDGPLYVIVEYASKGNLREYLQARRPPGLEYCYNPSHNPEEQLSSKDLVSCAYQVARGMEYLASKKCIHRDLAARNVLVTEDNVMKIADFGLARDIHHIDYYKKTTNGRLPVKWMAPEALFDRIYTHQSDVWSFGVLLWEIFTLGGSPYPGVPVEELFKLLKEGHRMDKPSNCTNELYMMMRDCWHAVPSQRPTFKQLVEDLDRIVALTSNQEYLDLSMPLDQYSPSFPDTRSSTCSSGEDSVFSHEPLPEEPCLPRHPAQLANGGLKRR
# measurementDescription: FGF-R1 kinase selectivity assay
# Assay type: biochemical
# runParameters: 1 μM inhibitor concentration
Reported percentage inhibition of FGF-R1 is given for each of the following compounds.

compound: c1cc2[nH]nc3c2c(n1)N(C1CCC1)CCC3 [Example 22]
targetSystem: FGF-R1 (Homo sapiens (Human), UniProt P11362)
unitsText: percentage
percentage inhibition of FGF-R1: 11
--
compound: CN1CCC(N2Cc3ccccc3-c3n[nH]c4ccnc2c34)CC1 [Example 55]
targetSystem: FGF-R1 (Homo sapiens (Human), UniProt P11362)
unitsText: percentage
percentage inhibition of FGF-R1: 9
--
compound: c1cc2[nH]nc3c2c(n1)N(C1CCCC1)CCC3 [Example 23]
targetSystem: FGF-R1 (Homo sapiens (Human), UniProt P11362)
unitsText: percentage
percentage inhibition of FGF-R1: 19
--
compound: c1cc2[nH]nc3c2c(n1)N(C1CCOCC1)CCC3 [Example 29]
targetSystem: FGF-R1 (Homo sapiens (Human), UniProt P11362)
unitsText: percentage
percentage inhibition of FGF-R1: 12
--
compound: CC(C)n1ncc2c1CN(C1CCN(C)CC1)c1nccc3[nH]nc-2c13 [Example 68]
targetSystem: FGF-R1 (Homo sapiens (Human), UniProt P11362)
unitsText: percentage
percentage inhibition of FGF-R1: 35

====

Reported percentage inhibition of RIPK2 values follow for various compounds
# targetSystem: RIPK2 (Homo sapiens (Human), UniProt O43353)
# Sequence (O43353 whole entry, species assumed): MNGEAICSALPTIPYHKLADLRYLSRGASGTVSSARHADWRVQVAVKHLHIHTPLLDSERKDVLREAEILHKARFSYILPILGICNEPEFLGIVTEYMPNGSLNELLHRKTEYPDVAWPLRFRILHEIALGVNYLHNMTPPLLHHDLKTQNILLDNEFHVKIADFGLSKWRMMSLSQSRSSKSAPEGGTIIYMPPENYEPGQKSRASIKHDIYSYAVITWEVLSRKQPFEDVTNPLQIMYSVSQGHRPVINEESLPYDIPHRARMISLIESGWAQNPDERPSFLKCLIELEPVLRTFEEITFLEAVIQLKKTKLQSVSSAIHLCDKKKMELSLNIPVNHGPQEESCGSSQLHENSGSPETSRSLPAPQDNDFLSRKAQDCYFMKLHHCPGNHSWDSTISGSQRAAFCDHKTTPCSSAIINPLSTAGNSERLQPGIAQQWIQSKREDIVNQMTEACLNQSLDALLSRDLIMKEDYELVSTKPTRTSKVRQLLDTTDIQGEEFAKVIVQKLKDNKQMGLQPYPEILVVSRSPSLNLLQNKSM
# measurementDescription: RIPK2 kinase selectivity assay
# Assay type: biochemical
# runParameters: 1 μM inhibitor concentration

compoundString: CN1CCC(N2Cc3ccccc3-c3n[nH]c4ccnc2c34)CC1
percentage inhibition of RIPK2: 7 percentage
--
compoundString: c1cc2[nH]nc3c2c(n1)N(C1CCCC1)CCC3
percentage inhibition of RIPK2: 0 percentage
--
compoundString: c1cc2[nH]nc3c2c(n1)N(C1CCOCC1)CCC3
percentage inhibition of RIPK2: 0 percentage
--
compoundString: CC(C)n1ncc2c1CN(C1CCN(C)CC1)c1nccc3[nH]nc-2c13
percentage inhibition of RIPK2: 0 percentage
--
compoundString: c1cc2[nH]nc3c2c(n1)N(C1CCC1)CCC3
percentage inhibition of RIPK2: 0 percentage

====

Form field: percentage inhibition of GCK (one value per entry).
# targetSystem: UniProt:Q12851
# Sequence (Q12851 whole entry): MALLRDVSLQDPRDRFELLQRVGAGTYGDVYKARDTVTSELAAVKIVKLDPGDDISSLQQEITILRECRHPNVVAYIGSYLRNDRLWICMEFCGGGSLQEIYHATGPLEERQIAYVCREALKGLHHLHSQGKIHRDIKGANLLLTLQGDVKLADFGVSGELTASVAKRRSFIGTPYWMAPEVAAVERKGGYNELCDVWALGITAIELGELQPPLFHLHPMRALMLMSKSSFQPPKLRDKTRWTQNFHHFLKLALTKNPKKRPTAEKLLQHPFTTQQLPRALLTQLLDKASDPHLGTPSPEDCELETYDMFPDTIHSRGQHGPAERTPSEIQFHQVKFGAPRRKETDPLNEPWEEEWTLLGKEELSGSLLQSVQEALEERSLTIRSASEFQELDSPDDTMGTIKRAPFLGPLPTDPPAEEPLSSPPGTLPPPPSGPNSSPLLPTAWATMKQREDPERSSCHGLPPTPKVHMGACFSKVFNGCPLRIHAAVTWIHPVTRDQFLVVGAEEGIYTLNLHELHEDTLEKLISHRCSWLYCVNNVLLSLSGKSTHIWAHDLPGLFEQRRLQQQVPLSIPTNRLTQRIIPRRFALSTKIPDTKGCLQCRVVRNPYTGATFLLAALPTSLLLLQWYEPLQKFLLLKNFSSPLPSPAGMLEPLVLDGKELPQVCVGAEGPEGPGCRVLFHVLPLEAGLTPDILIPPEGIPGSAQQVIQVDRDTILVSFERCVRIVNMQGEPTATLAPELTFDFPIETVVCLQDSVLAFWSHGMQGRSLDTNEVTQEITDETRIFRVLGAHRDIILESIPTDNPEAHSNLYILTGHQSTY
# measurementDescription: GCK kinase selectivity assay
# Format: biochemical
# runParameters: 1 μM inhibitor concentration

compoundString: c1cc2[nH]nc3c2c(n1)N(C1CCC1)CCC3
percentage inhibition of GCK: 56 percentage
--
compoundString: CN1CCC(N2Cc3ccccc3-c3n[nH]c4ccnc2c34)CC1
percentage inhibition of GCK: 71 percentage
--
compoundString: c1cc2[nH]nc3c2c(n1)N(C1CCOCC1)CCC3
percentage inhibition of GCK: 67 percentage
--
compoundString: CC(C)n1ncc2c1CN(C1CCN(C)CC1)c1nccc3[nH]nc-2c13
percentage inhibition of GCK: 27 percentage
--
compoundString: c1cc2[nH]nc3c2c(n1)N(C1CCCC1)CCC3
percentage inhibition of GCK: 41 percentage

====

# targetSystem: MNK2 (Homo sapiens (Human))
# Sequence (Q9HBH9 whole entry, species assumed): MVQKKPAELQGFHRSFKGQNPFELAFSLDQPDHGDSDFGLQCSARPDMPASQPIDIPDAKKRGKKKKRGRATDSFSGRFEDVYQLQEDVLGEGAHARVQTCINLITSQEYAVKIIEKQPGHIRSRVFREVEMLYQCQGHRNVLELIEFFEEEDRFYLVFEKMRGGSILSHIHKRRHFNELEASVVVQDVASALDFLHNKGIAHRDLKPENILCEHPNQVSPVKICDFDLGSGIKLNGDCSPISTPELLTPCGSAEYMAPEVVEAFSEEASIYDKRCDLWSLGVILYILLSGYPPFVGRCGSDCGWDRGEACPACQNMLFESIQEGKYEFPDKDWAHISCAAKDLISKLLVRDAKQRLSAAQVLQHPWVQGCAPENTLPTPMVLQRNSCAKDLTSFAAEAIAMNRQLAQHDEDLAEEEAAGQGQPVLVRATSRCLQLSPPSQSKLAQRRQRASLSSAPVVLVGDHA
# measurementDescription: MNK2 kinase selectivity assay
# Type: biochemical
# runParameters: 1 μM inhibitor concentration
// values below are reported percentage inhibition of MNK2

compound: CC(C)n1ncc2c1CN(C1CCN(C)CC1)c1nccc3[nH]nc-2c13 [Example 68]
targetSystem: MNK2 (Homo sapiens (Human))
unitsText: percentage
percentage inhibition of MNK2: 18
--
compound: CN1CCC(N2Cc3ccccc3-c3n[nH]c4ccnc2c34)CC1 [Example 55]
targetSystem: MNK2 (Homo sapiens (Human))
unitsText: percentage
percentage inhibition of MNK2: 40
--
compound: c1cc2[nH]nc3c2c(n1)N(C1CCOCC1)CCC3 [Example 29]
targetSystem: MNK2 (Homo sapiens (Human))
unitsText: percentage
percentage inhibition of MNK2: 0
--
compound: c1cc2[nH]nc3c2c(n1)N(C1CCC1)CCC3 [Example 22]
targetSystem: MNK2 (Homo sapiens (Human))
unitsText: percentage
percentage inhibition of MNK2: 0
--
compound: c1cc2[nH]nc3c2c(n1)N(C1CCCC1)CCC3 [Example 23]
targetSystem: MNK2 (Homo sapiens (Human))
unitsText: percentage
percentage inhibition of MNK2: 0
